Consider compounds characterized by their pKi with Prothrombin (Homo sapiens, UniProt P00734).
Give only the number. pKi is defined as minus log10 of concentration in molar units.

The recorded pKi for CCC1CCN(C(=O)[C@H](Cc2ccc(N)cc2)NS(=O)(=O)c2cnccc2N[C@H](CO)Cc2ccc(OC)cc2)CC1 is 7.40

The recorded pKi for O=C([C@H](Cc1ccccc1)NS(=O)(=O)c1cnccc1N[C@H](COCCO)Cc1ccccc1)N1CCC(CCF)CC1 is 6.66

The recorded pKi for CN(C)C[C@H](Cc1ccccc1)Nc1ccncc1S(=O)(=O)N[C@@H](Cc1ccccc1)C(=O)N1CCC(CCF)CC1 (stereo in doubt; 64) is 6.89
